# SYSTEM: G-protein coupled bile acid receptor 1 (Homo sapiens, UniProt Q8TDU6)
# Sequence (Q8TDU6 whole entry): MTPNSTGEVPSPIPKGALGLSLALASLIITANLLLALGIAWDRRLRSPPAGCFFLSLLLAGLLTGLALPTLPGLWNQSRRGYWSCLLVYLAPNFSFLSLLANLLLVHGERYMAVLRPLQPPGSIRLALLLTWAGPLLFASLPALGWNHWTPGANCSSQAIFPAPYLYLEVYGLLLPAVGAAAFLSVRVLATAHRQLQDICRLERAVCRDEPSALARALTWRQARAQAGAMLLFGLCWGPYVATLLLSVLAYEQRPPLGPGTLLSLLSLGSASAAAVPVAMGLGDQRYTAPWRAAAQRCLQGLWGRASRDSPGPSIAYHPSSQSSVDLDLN
# MEASUREMENT DESCRIPTION: Agonist activity at human TGR5 transfected in HEK293T cells assessed intracellular cAMP level by HTRF assay
A collection of compounds and their measured log10(EC50)
PARAMETER: log10(EC50) (log10 of the value in nM)

* O=C(c1cncn1Cc1cc(Cl)ccc1Cl)N1CCN(C2CC2)c2ccccc21 | 0.98
* O=C(c1cncn1Cc1ccccc1)N1CCN(C2CC2)c2ccccc21 | 3.24
* O=C(c1cncn1Cc1ccc(F)cc1)N1CCN(C2CC2)c2ccccc21 | 2.75
* O=C(c1cncn1Cc1ccc(F)cc1F)N1CCN(C2CC2)c2ccccc21 | 2.53
* O=C(c1cncn1Cc1ccc(Cl)cc1Cl)N1CCN(C2CC2)c2ccccc21 | 0.83
* O=C(c1cncn1Cc1ccccc1Cl)N1CCN(C2CC2)c2ccccc21 | 2.07
* C[C@H](c1ccccc1)n1cncc1C(=O)N(C)c1ccc(F)cc1 | 3.02
